tested on: Mucor hiemalis DSM 2656; test: MIC serial dilution assay; assay type: cell-based; details: DSM2656, starting concentration 66.7 μg/mL, read-out: MIC
endpoint-label: MIC (µg/mL)

Worked examples follow.
molecule	assay-system	MIC / µg/mL
CC(C)=CCc1ccc(O)c2c1C(O)(c1cc(C)cc3c1O[C@H](C(C)(C)O)CO3)OC2 (mixture of isomers)	Mucor hiemalis DSM 2656	66.6
CC(C)=CCc1ccc(O)c2c1C(O)(c1cc(C)cc3c1O[C@H](C(C)(C)O)CO3)NC2=O (some centres unmarked)	Mucor hiemalis DSM 2656	33.3

(P) CC(C)=CCc1ccc(O)c(C=O)c1C(=O)c1cc(C)cc2c1OC(C(C)(C)O)CO2 (centres unmarked)
(Q) CC(C)=CCc1ccc(O)c2c1C(c1cc(C)cc3c1O[C@H](C(C)(C)O)CO3)NC2=O (mixture of isomers)
(R) CCC(C)C=C(C)C=CC1=CC2=C(Cl)C(=O)C3(C)OC(=O)C(C(C)O)C3C2=CO1 (centres unmarked)
// sort entries: MIC, high to low Field: ranking. Enter the labels in the order requested. Q, P, R

Values from paper PMC10381184
